These entries and their values trace back to patent US8658604B2.

Please provide measured Tryptase At 100 μM % for the entries that follow.
# Tested on: Tryptase, from human lung
# assayRemarks: Enzymatic assay, tryptase
# conditionsUsed: at 100 μM
Where a SMILES comes first, the peptide text is derived from it.
Quick note: give the figure in %, leave out the unit.

Q: Name the reported Tryptase At 100 μM % value associated with the compound CCCC[C@@H]1NC(=O)[C@@H]2CCCN2C(=O)[C@H]2CCCN2C(=O)[C@H](c2ccccc2)NC(=O)[C@@H]2CSSC[C@H](NC1=O)C(=O)N[C@@H]([C@@H](C)O)C(=O)N[C@@H](C)C(=O)N[C@@H](CO)C(=O)N[C@@H]([C@@H](C)CC)C(=O)N1CCC[C@H]1C(=O)N1CCC[C@H]1C(=O)N[C@@H](CCC(N)=O)C(=O)N2 [Ex. 136] (HELM PEPTIDE1{[Nle].C.T.A.S.I.P.P.Q.C.[Phg].[dP].P}$PEPTIDE1,PEPTIDE1,2:R3-10:R3|PEPTIDE1,PEPTIDE1,1:R1-13:R2$$$V2.0)
Result: 0

Q: Name the reported Tryptase At 100 μM % value associated with the compound CC[C@H](C)[C@@H]1NC(=O)[C@H](CO)NC(=O)[C@H](C)NC(=O)[C@H]([C@@H](C)O)NC(=O)[C@@H]2CSSC[C@H](NC(=O)[C@H](CCC(N)=O)NC(=O)[C@@H]3CCCN3C(=O)[C@@H]3CCCN3C1=O)C(=O)N[C@@H](CCC(N)=O)C(=O)N1CCC[C@@H]1C(=O)N1CCC[C@H]1C(=O)N[C@@H](CCc1ccccc1)C(=O)N2 [Ex. 143] (HELM PEPTIDE1{[O=C([C@H](CCc1ccccc1)N[*:1])[*:2]].C.T.A.S.I.P.P.Q.C.Q.[dP].P}$PEPTIDE1,PEPTIDE1,2:R3-10:R3|PEPTIDE1,PEPTIDE1,1:R1-13:R2$$$V2.0)
Result: 18

Q: Name the reported Tryptase At 100 μM % value associated with the compound CCCC[C@@H]1NC(=O)[C@H](CC(=O)O)NC(=O)[C@H]2CCCN2C(=O)[C@H](Cc2ccc(O)cc2)NC(=O)[C@@H]2CSSC[C@H](NC1=O)C(=O)N[C@@H]([C@@H](C)O)C(=O)N[C@@H](C)C(=O)N[C@@H](CO)C(=O)N[C@@H]([C@@H](C)CC)C(=O)N1CCC[C@H]1C(=O)N1CCC[C@H]1C(=O)N[C@@H](CCC(N)=O)C(=O)N2 [Ex. 168] (HELM PEPTIDE1{[Nle].C.T.A.S.I.P.P.Q.C.Y.[dP].D}$PEPTIDE1,PEPTIDE1,2:R3-10:R3|PEPTIDE1,PEPTIDE1,1:R1-13:R2$$$V2.0)
Result: 4.6

---

# testTarget: Trypsin, from human pancreas (Homo sapiens, UniProt P07477)
# assayRemarks: Enzymatic assay, trypsin
# conditionsUsed: at 100 μM
Where a SMILES comes first, the peptide text is derived from it.
measurementType: Trypsin at 100 μM % (%)
Quick note: give the figure in %, leave out the unit.

Q: Name the reported Trypsin at 100 μM % value associated with the molecule CCCCCCCC[C@@H]1NC(=O)[C@@H]2CCCN2C(=O)[C@H]2CCCN2C(=O)[C@H](Cc2ccc(O)cc2)NC(=O)[C@@H]2CSSC[C@H](NC1=O)C(=O)N[C@@H]([C@@H](C)O)C(=O)N[C@@H](C)C(=O)N[C@@H](CO)C(=O)N[C@@H]([C@@H](C)CC)C(=O)N1CCC[C@H]1C(=O)N1CCC[C@H]1C(=O)N[C@@H](CCC(N)=O)C(=O)N2 [Ex. 102] (HELM PEPTIDE1{[CCCCCCCC[C@H](N[*:1])C(=O)[*:2]].C.T.A.S.I.P.P.Q.C.Y.[dP].P}$PEPTIDE1,PEPTIDE1,2:R3-10:R3|PEPTIDE1,PEPTIDE1,1:R1-13:R2$$$V2.0)
Result: 0

Q: Name the reported Trypsin at 100 μM % value associated with the molecule CC[C@H](C)[C@@H]1NC(=O)[C@@H]2CCCN2C(=O)[C@H]2CCCN2C(=O)[C@H](CCCNC(=N)N)NC(=O)[C@@H]2CSSC[C@H](NC1=O)C(=O)N[C@@H]([C@@H](C)O)C(=O)N[C@@H](CCCCN)C(=O)N[C@@H](CO)C(=O)N[C@@H](CC(=O)O)C(=O)N1CCC[C@H]1C(=O)N1CCC[C@H]1C(=O)N[C@@H](Cc1ccc(O)cc1)C(=O)N2 [Ex. 18] (HELM PEPTIDE1{I.C.T.K.S.D.P.P.Y.C.R.[dP].P}$PEPTIDE1,PEPTIDE1,2:R3-10:R3|PEPTIDE1,PEPTIDE1,1:R1-13:R2$$$V2.0)
Result: 84

Q: Name the reported Trypsin at 100 μM % value associated with the molecule CC[C@H](C)[C@@H]1NC(=O)[C@@H]2CCCN2C(=O)[C@H]2CCCN2C(=O)[C@H](CCCNC(=N)N)NC(=O)[C@@H]2CSSC[C@H](NC1=O)C(=O)N[C@@H]([C@@H](C)O)C(=O)N[C@@H](CCCCN)C(=O)N[C@@H](CO)C(=O)N[C@@H](CC(=O)O)C(=O)N1CCC[C@H]1C(=O)N1CCC[C@H]1C(=O)N[C@@H](CC1CCCCC1)C(=O)N2 [Ex. 20] (HELM PEPTIDE1{I.C.T.K.S.D.P.P.[Cha].C.R.[dP].P}$PEPTIDE1,PEPTIDE1,2:R3-10:R3|PEPTIDE1,PEPTIDE1,1:R1-13:R2$$$V2.0)
Result: 97.0

Q: Name the reported Trypsin at 100 μM % value associated with the molecule CCCC[C@@H]1NC(=O)[C@H]([C@@H](C)O)NC(=O)[C@@H]2CSSC[C@H](NC(=O)[C@H]([C@@H](C)CC)NC(=O)[C@@H]3CCCN3C(=O)[C@@H]3CCCN3C(=O)[C@H](CC(=O)O)NC(=O)[C@H](CO)NC1=O)C(=O)N[C@@H](Cc1ccc(O)cc1)C(=O)N1CCC[C@@H]1C(=O)N1CCC[C@H]1C(=O)N[C@@H](Cc1ccccc1)C(=O)N2 [Ex. 60] (HELM PEPTIDE1{F.C.T.[Nle].S.D.P.P.I.C.Y.[dP].P}$PEPTIDE1,PEPTIDE1,2:R3-10:R3|PEPTIDE1,PEPTIDE1,1:R1-13:R2$$$V2.0)
Result: 90

Q: Name the reported Trypsin at 100 μM % value associated with the molecule CCCC[C@@H]1NC(=O)[C@@H]2CCCN2C(=O)[C@H]2CCCN2C(=O)[C@H](CO)NC(=O)[C@@H]2CSSC[C@H](NC1=O)C(=O)N[C@@H]([C@@H](C)O)C(=O)N[C@@H](CCCCN)C(=O)N[C@@H](CO)C(=O)N[C@@H](CC(=O)O)C(=O)N1CCC[C@H]1C(=O)N1CCC[C@H]1C(=O)N[C@@H]([C@@H](C)CC)C(=O)N2 [Ex. 10] (HELM PEPTIDE1{[Nle].C.T.K.S.D.P.P.I.C.S.[dP].P}$PEPTIDE1,PEPTIDE1,2:R3-10:R3|PEPTIDE1,PEPTIDE1,1:R1-13:R2$$$V2.0)
Result: 89.9

Q: Name the reported Trypsin at 100 μM % value associated with the molecule CCCC[C@@H]1NC(=O)[C@@H]2CCCN2C(=O)[C@@H]2CCCN2C(=O)[C@H](CC(=O)O)NC(=O)[C@H](CO)NC(=O)[C@H](CCCCN)NC(=O)[C@H]([C@@H](C)O)NC(=O)[C@@H]2CSSC[C@H](NC1=O)C(=O)N[C@@H](CO)C(=O)N1CCC[C@@H]1C(=O)N1CCC[C@H]1C(=O)N[C@@H](Cc1ccccc1)C(=O)N2 [Ex. 53] (HELM PEPTIDE1{F.C.T.K.S.D.P.P.[Nle].C.S.[dP].P}$PEPTIDE1,PEPTIDE1,2:R3-10:R3|PEPTIDE1,PEPTIDE1,1:R1-13:R2$$$V2.0)
Result: 95

Q: Name the reported Trypsin at 100 μM % value associated with the molecule CC[C@H](C)[C@@H]1NC(=O)[C@H](CO)NC(=O)[C@H](C)NC(=O)[C@H]([C@@H](C)O)NC(=O)[C@@H]2CSSC[C@H](NC(=O)[C@H](CCC(N)=O)NC(=O)[C@@H]3CCCN3C(=O)[C@@H]3CCCN3C1=O)C(=O)N[C@@H](Cc1ccccc1)C(=O)N1CCC[C@@H]1C(=O)N1CCC[C@H]1C(=O)N[C@@H](CCc1ccccc1)C(=O)N2 [Ex. 146] (HELM PEPTIDE1{[O=C([C@H](CCc1ccccc1)N[*:1])[*:2]].C.T.A.S.I.P.P.Q.C.F.[dP].P}$PEPTIDE1,PEPTIDE1,2:R3-10:R3|PEPTIDE1,PEPTIDE1,1:R1-13:R2$$$V2.0)
Result: 3

Q: Name the reported Trypsin at 100 μM % value associated with the molecule CCCC[C@@H]1NC(=O)[C@@H]2CCCN2C(=O)[C@H]2CCCN2C(=O)[C@H](Cc2ccc(O)cc2)NC(=O)[C@@H]2CSSC[C@H](NC1=O)C(=O)N[C@@H]([C@@H](C)O)C(=O)N[C@@H](C)C(=O)N[C@@H](CO)C(=O)N[C@@H](C1CCCCC1)C(=O)N1CCC[C@H]1C(=O)N1CCC[C@H]1C(=O)N[C@@H](CCC(N)=O)C(=O)N2 [Ex. 84] (HELM PEPTIDE1{[Nle].C.T.A.S.[O=C([C@@H](N[*:1])C1CCCCC1)[*:2]].P.P.Q.C.Y.[dP].P}$PEPTIDE1,PEPTIDE1,2:R3-10:R3|PEPTIDE1,PEPTIDE1,1:R1-13:R2$$$V2.0)
Result: 10.8
